Data provenance: patent US20090304692A1

# TARGET_SYSTEM: UniProt:P42336
# Sequence (P42336 whole entry, species assumed): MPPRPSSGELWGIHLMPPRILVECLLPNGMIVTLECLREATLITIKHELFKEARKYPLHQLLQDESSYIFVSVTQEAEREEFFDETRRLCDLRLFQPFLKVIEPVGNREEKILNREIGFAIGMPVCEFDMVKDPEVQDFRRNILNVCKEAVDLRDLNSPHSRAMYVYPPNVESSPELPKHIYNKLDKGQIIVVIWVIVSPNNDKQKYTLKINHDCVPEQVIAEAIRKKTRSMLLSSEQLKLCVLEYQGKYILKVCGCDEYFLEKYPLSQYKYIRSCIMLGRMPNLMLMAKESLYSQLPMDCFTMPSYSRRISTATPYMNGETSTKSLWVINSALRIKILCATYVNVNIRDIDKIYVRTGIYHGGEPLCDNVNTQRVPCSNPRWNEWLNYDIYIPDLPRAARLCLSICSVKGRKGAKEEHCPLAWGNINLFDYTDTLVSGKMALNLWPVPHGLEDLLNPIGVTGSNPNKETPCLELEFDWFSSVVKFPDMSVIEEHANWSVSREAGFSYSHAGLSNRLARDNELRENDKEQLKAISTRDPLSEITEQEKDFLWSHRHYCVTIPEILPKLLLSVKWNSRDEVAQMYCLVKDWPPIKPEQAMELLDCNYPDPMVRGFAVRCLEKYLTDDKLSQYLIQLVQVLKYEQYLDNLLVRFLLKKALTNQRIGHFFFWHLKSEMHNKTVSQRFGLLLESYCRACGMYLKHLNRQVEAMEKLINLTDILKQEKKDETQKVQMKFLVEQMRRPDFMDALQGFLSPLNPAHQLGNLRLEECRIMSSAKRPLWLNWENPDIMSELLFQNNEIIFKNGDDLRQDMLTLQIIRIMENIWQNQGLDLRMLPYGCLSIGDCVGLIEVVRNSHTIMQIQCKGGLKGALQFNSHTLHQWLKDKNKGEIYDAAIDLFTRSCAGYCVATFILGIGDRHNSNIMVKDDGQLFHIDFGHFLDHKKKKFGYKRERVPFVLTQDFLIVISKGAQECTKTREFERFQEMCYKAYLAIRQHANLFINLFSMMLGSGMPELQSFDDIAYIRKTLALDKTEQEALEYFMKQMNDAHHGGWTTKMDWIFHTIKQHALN
# Sequence (P27986 whole entry partner, species assumed): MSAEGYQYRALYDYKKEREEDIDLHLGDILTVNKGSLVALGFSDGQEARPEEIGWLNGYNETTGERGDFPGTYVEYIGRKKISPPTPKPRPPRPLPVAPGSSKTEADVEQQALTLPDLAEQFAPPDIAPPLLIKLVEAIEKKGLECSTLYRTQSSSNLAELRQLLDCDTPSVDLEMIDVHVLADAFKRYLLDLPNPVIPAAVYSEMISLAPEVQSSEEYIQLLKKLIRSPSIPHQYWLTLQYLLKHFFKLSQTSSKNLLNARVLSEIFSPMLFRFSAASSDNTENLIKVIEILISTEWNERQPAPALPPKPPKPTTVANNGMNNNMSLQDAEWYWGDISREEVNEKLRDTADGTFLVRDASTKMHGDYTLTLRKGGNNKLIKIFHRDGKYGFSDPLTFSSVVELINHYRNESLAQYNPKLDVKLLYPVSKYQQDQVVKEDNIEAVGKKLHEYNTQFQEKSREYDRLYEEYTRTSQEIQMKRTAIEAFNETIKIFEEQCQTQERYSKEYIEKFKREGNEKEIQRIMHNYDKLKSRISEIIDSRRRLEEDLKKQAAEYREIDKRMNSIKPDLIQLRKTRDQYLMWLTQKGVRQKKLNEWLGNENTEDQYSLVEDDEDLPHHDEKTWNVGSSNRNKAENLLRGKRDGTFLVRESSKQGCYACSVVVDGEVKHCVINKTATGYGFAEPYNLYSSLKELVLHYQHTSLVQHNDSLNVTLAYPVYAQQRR
# PROTOCOL_SUMMARY: PI3K-alpha fluorescence polarization assay
# MEASUREMENT_CONDITIONS: read-out: IC50 PI3Kα
Define the label as MET when IC50 is strictly less than 0.01 µM and as NOT MET in all remaining cases.

// query Criterion: IC50 strictly below 0.01 µM. Is it met by CN(C)CCNCCCc1nc(-c2ccc(NC(=O)Nc3ccncc3)cc2)nc(N2CCOCC2)n1 ?
// result NOT MET

// query // same read-out, input: CN1CCC(Oc2nc(-c3ccc(NC(=O)Nc4ccncc4)cc3)nc(N3CCOCC3)n2)CC1
// result MET

// query // same read-out, input: O=C(Nc1ccc(C(=O)NCCN2CCCC2)cc1)Nc1ccc(-c2nc(N3CCOCC3)nc(N3C4COCC3COC4)n2)cc1
// result MET

// query // same read-out, input: CN1C2CCC1CC(Oc1nc(-c3ccc(NC(=O)Nc4ccncc4)cc3)nc(N3CCOCC3)n1)C2 (stereo not shown)
// result MET

// query // same read-out, input: CN(C)CCNC(=O)c1ccc(NC(=O)Nc2ccc(-c3nc(NS(=O)(=O)c4ccccc4)nc(N4CCOCC4)n3)cc2)cc1
// result NOT MET

// query // same read-out, input: O=C(Nc1ccc(-c2nc(N3CCOCC3)nc(N3C4CCC3COC4)n2)cc1)Nc1ccc(-c2nc(N3CCOCC3)nc(N3C4CCC3COC4)n2)cc1
// result NOT MET

// query // same read-out, input: Cc1ccc(-c2nc(-c3ccc(NC(=O)Nc4cccc(C(=O)NCCN(C)C)c4)cc3)nc(N3CCOCC3)n2)cc1
// result NOT MET

// query // same read-out, input: CC(C)Nc1nc(-c2ccc(NC(=O)Nc3ccc(N4CCC(N(C)C)CC4)cc3)cc2)nc(N2C3CCC2COC3)n1
// result NOT MET

// query // same read-out, input: CCc1nc(-c2ccc(NC(=O)Nc3ccc(C(=O)NCCN(C)C)cc3)cc2)nc(N2CCOCC2)n1
// result MET

// query // same read-out, input: C[C@@H]1COCCN1c1nc(-c2ccc(NC(=O)Nc3ccc(N4CCN(C5CC5)CC4)cc3)cc2)nc(N2C3CCC2COC3)n1
// result NOT MET

// query // same read-out, input: CC(C)N1CCN(C(=O)c2ccc(NC(=O)Nc3ccc(-c4nc(N5CCOC[C@H]5C)nc(N5CCOC[C@H]5C)n4)cc3)cc2)CC1
// result NOT MET

// query // same read-out, input: CN(C)CC(=O)Nc1ccc(NC(=O)Nc2ccc(-c3nc(N4CC5CCC(C4)O5)nc(N4CC5CCC(C4)O5)n3)cc2)cc1
// result NOT MET

// query // same read-out, input: Cc1ccc(NC(=O)Nc2ccc(-c3nc(N4CCOCC4)nc(N4CCOCC4)n3)cc2)cc1
// result NOT MET

// query // same read-out, input: C[C@H]1COCCN1c1nc(-c2ccc(NC(=O)Nc3ccc(C(=O)N4CC[C@@H](N(C)C)C4)cc3)cc2)nc(N2C3CCC2COC3)n1
// result MET

// query // same read-out, input: COC(=O)c1ccc(NC(=O)Nc2ccc(-c3nc(C4=CCOCC4)nc(N4CCOCC4)n3)cc2)cc1
// result NOT MET

// query // same read-out, input: O=CCCc1nc(-c2ccc(NC(=O)Nc3ccncc3)cc2)nc(N2CCOCC2)n1
// result MET

// query // same read-out, input: Cc1ccc(-c2nc(-c3ccc(NC(=O)Nc4cccc(C(=O)O)c4)cc3)nc(N3CCOCC3)n2)cc1
// result NOT MET

// query // same read-out, input: O=C(Nc1ccc(C(=O)NCCN2CCCC2)cc1)Nc1ccc(-c2nc(N3CCOCC3)nc(N3C4CCCC3COC4)n2)cc1
// result MET

// query // same read-out, input: CN(C)CCN(C)C(=O)c1ccc(NC(=O)Nc2ccc(-c3nc(C4CCOCC4)nc(N4C5CCC4COC5)n3)cc2)cc1
// result NOT MET

// query // same read-out, input: CCNC1CCN(c2nc(-c3ccc(NC(=O)Nc4ccncc4)cc3)nc(N3CC4CCC(C3)O4)n2)CC1
// result NOT MET

// query // same read-out, input: CN(C)CCCNC(=O)c1ccc(NC(=O)Nc2ccc(-c3nc(-c4ccccc4)nc(N4CCOCC4)n3)cc2)cc1
// result MET

// query // same read-out, input: CC(C)(C)OC(=O)N1CC(Nc2nc(-c3ccc(NC(=O)Nc4ccc(F)cc4)cc3)nc(N3CCOCC3)n2)C1
// result NOT MET

// query // same read-out, input: Cc1ccc(-c2nc(-c3ccc(NC(=O)Nc4cccc(C(=O)N5CCN(C)CC5)c4)cc3)nc(N3CCOCC3)n2)cc1
// result NOT MET

// query // same read-out, input: CN(C)C(=O)Nc1ccc(NC(=O)Nc2ccc(-c3nc(N4CCOCC4)nc(N4CCOCC4)n3)cc2)cc1
// result MET

// query // same read-out, input: O=C(Nc1ccc(F)cc1)Nc1ccc(-c2nc(NC3CNC3)nc(N3CCOCC3)n2)cc1
// result NOT MET

// query // same read-out, input: O=C(Nc1ccc(Cl)cc1)Nc1ccc(-c2nc(N3CCOCC3)nc(N3CCOCC3)n2)cc1
// result NOT MET

// query // same read-out, input: COC(=O)c1ccc(NC(=O)Nc2ccc(-c3nc(N4CCOCC4)nc(N4CCN(C(=O)N(C)C)CC4)n3)cc2)cc1
// result NOT MET
